- measurementTarget: Peroxisome proliferator-activated receptor alpha (Homo sapiens, UniProt Q07869)
- testSettings: read-out: EC50
assayEndpoint: pEC50
One number for each entry, as −log10 of the molar value.

Consider the reported pEC50 for these compounds:
| compound | assayEndpoint | readoutNumber |
| --- | --- | --- |
| CCCc1c(OCCCSc2ccc(CC(=O)O)cc2Cl)ccc2c(-c3ccccc3)coc12 [L-796449] | pEC50 | 7.74 |
| CCCc1c(OCCCSc2ccc(CC(=O)O)cc2Cl)ccc2c(CC)coc12 | pEC50 | 5.89 |
| CCCc1c(OCCCSc2ccc(CC(=O)O)cc2Cl)ccc(C(C)=O)c1O | pEC50 | 5.80 |

Hi there! I need pEC50 for each item below, if you can.
1. CCCc1c(OCCCSc2ccc(CC(=O)O)cc2Cl)ccc(/C(CC)=N/O)c1O
2. CCCc1c(OCCCSc2ccc(CC(=O)O)cc2Cl)ccc(C(=O)CC)c1O
3. CCCc1c(OCCCSc2ccc(CC(=O)O)cc2Cl)ccc2c(C(F)(F)F)noc12
4. CCCc1c(OCCCSc2ccc(CC(=O)O)cc2Cl)ccc2c(CC)noc12 [L-165461]

7.13
6.59
6.90
6.61

====

- measurementTarget: Peroxisome proliferator-activated receptor alpha (Homo sapiens, UniProt Q07869)
- Sequence (Q07869 whole entry): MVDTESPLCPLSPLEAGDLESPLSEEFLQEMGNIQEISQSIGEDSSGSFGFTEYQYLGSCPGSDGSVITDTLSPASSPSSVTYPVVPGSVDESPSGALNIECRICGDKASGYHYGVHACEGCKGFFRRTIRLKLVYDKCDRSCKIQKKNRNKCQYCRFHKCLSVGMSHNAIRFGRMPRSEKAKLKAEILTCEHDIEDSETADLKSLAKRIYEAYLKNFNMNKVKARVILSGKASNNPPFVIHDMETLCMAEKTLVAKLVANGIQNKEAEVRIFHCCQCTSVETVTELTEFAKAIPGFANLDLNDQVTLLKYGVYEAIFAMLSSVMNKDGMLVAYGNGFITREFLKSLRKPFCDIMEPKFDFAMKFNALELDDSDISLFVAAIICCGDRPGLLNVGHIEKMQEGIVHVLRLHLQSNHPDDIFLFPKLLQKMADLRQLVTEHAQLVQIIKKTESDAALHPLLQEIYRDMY
Hi there, I'd appreciate the recorded pIC50 for every entry that follows.
Answers are plain numbers, as −log10 of the molar value.

Solved cases below.
| compound | readoutNumber |
| --- | --- |
| CCCc1c(OCCCSc2ccc(CC(=O)O)cc2Cl)ccc2c(CC)coc12 | 5.76 |
| CCCc1c(OCCCSc2ccc(CC(=O)O)cc2Cl)ccc2c(-c3ccccc3)coc12 [L-796449] | 7.27 |
| CCCc1c(OCCCSc2ccc(CC(=O)O)cc2Cl)ccc(C(=O)CC)c1O | 6.22 |
| CCCc1c(OCCCSc2ccc(CC(=O)O)cc2Cl)ccc2c(C(F)(F)F)noc12 | 6.51 |
| CCCc1c(OCCCSc2ccc(CC(=O)O)cc2Cl)ccc(C(C)=O)c1O | 5.13 |
| CCCc1c(OCCCSc2ccc(CC(=O)O)cc2Cl)ccc(/C(CC)=N/O)c1O | 7.00 |

Consider the record given below.
Look at this compound and give its reported pIC50. CCCc1c(OCCCSc2ccc(CC(=O)O)cc2Cl)ccc2c(CC)noc12 [L-165461]
6.24

====

- Organism: Rattus norvegicus
- Assay type: functional, Plasma
- testSettings: at 30 mg/kg/day
assayEndpoint: Dec (%)
One number for each entry, in %.

Sample records with Dec:
| compound | unitsText | Dec |
| --- | --- | --- |
| CCCc1c(OCCCSc2ccc(CC(=O)O)cc2Cl)ccc2c(-c3ccccc3)coc12 | % | 88 |
| CCCc1c(OCCCSc2ccc(CC(=O)O)cc2Cl)ccc2c(CC)noc12 | % | -14 |
| CN(CCOc1ccc(CC2SC(=O)NC2=O)cc1)c1ccccn1 (centres undefined) | % | 86 |

Next compound, Dec to be filled in.
Please give the measured Dec for this compound: CCCc1c(OCCCSc2ccc(CC(=O)O)cc2Cl)ccc(/C(CC)=N/O)c1O
15

====

- measurementTarget: Peroxisome proliferator-activated receptor delta (Homo sapiens, UniProt Q03181)
- Sequence (Q03181 whole entry): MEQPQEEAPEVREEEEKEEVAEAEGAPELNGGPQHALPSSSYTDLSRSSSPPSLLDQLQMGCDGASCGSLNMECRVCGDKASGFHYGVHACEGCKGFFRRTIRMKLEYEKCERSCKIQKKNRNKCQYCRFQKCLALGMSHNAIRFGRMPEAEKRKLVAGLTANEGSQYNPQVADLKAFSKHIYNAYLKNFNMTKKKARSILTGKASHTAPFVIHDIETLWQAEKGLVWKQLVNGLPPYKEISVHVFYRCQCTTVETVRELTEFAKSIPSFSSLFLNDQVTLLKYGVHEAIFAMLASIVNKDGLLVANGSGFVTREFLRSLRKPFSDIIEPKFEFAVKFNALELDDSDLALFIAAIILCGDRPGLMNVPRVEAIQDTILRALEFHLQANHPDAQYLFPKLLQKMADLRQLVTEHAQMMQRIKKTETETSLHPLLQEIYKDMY
For each of the compounds below, state its EC50.
One number for each entry, in nM.

| compoundString | readoutNumber |
| --- | --- |
| CCCc1c(OCCCSc2ccc(CC(=O)O)cc2Cl)ccc(/C(CC)=N/O)c1O | 9 |
| CCCc1c(OCCCSc2ccc(CC(=O)O)cc2Cl)ccc(C(C)=O)c1O | 80 |
| CCCc1c(OCCCSc2ccc(CC(=O)O)cc2Cl)ccc(C(=O)CC)c1O | 10 |

Would you kindly look at the next entry?
Given the compound CCCc1c(OCCCSc2ccc(CC(=O)O)cc2Cl)ccc2c(C(F)(F)F)noc12 , what is its reported EC50?
5

====

- assayProcedure: in vivo
- testSettings: male, Sprague-Dawley, rat, po, 10 mg/kg
Provide the recorded bioavailability for the entries that follow.
Just the number plus its unit, please.

| compound | bioavailability |
| --- | --- |
| CCCc1c(OCCCSc2ccc(CC(=O)O)cc2Cl)ccc2c(-c3ccccc3)coc12 [L-796449] | 84% |
| CCCc1c(OCCCSc2ccc(CC(=O)O)cc2Cl)ccc2c(CC)noc12 [L-165461] | 50% |
| CCCc1c(OCCCSc2ccc(CC(=O)O)cc2Cl)ccc(/C(CC)=N/O)c1O | 33% |

Endpoint output: bioavailability of CCCc1c(OCCCSc2ccc(CC(=O)O)cc2Cl)ccc2c(C(F)(F)F)noc12 . Value?
100%

====

Give clearance for every item shown.
- assayProcedure: in vivo
- testSettings: male, Sprague-Dawley, rat, iv
In your response, put the unit directly after the numeric value.

Guide cases for clearance, answers given:
| compoundString | result |
| --- | --- |
| CCCc1c(OCCCSc2ccc(CC(=O)O)cc2Cl)ccc(/C(CC)=N/O)c1O | 5.7 mL/min/kg |
| CCCc1c(OCCCSc2ccc(CC(=O)O)cc2Cl)ccc2c(C(F)(F)F)noc12 | 2.6 mL/min/kg |

Fill in the blank: the reported clearance of CCCc1c(OCCCSc2ccc(CC(=O)O)cc2Cl)ccc2c(CC)noc12 is ____.
17.6 mL/min/kg

====

- Species: Rattus norvegicus
- Assay type: functional, Plasma
- testSettings: at 30 mg/kg/day
assayEndpoint: Corr (%)
Numbers only, in %.

Example entries and their recorded answers appear below.
| compound | readoutNumber |
| --- | --- |
| CCCc1c(OCCCSc2ccc(CC(=O)O)cc2Cl)ccc(/C(CC)=N/O)c1O | 44 |
| CCCc1c(OCCCSc2ccc(CC(=O)O)cc2Cl)ccc2c(C(F)(F)F)noc12 | 95 |
| CN(CCOc1ccc(CC2SC(=O)NC2=O)cc1)c1ccccn1 (stereo not given) | 109 |
| CCCc1c(OCCCSc2ccc(CC(=O)O)cc2Cl)ccc2c(CC)noc12 | 29 |

I have this compound here, CCCc1c(OCCCSc2ccc(CC(=O)O)cc2Cl)ccc2c(-c3ccccc3)coc12 , and I need its recorded Corr.
56

====

Field: pIC50. Provide a value for each of the compounds that follow.
- measurementTarget: Peroxisome proliferator-activated receptor delta (Homo sapiens, UniProt Q03181)
Numbers only, as −log10 of the molar value.

Take a look at these entries with their results.
| compoundString | readoutNumber |
| --- | --- |
| CCCc1c(OCCCSc2ccc(CC(=O)O)cc2Cl)ccc(C(C)=O)c1O | 7.70 |
| CCCc1c(OCCCSc2ccc(CC(=O)O)cc2Cl)ccc2c(C(F)(F)F)noc12 | 8.00 |
| CCCc1c(OCCCSc2ccc(CC(=O)O)cc2Cl)ccc(/C(CC)=N/O)c1O | 8.00 |

Lab note: next compound to report on.
For the record CCCc1c(OCCCSc2ccc(CC(=O)O)cc2Cl)ccc(C(=O)CC)c1O , what value of pIC50 is listed for Peroxisome proliferator-activated receptor delta (Homo sapiens, UniProt Q03181)?
7.70

====

- assayProcedure: in vivo
- testSettings: male, Sprague-Dawley, rat, iv
Field: half-life. Provide a value for each of the molecules that follow.
One number for each entry, in h.

Solved cases below.
| compoundString | half-life, h |
| --- | --- |
| CCCc1c(OCCCSc2ccc(CC(=O)O)cc2Cl)ccc(/C(CC)=N/O)c1O | 2.8 |
| CCCc1c(OCCCSc2ccc(CC(=O)O)cc2Cl)ccc2c(C(F)(F)F)noc12 | 4.7 |
| CCCc1c(OCCCSc2ccc(CC(=O)O)cc2Cl)ccc2c(-c3ccccc3)coc12 | 2.1 |

Now examine the next entry.
Looking for the measured half-life of CCCc1c(OCCCSc2ccc(CC(=O)O)cc2Cl)ccc2c(CC)noc12 , can you help?
1

Each recorded value in this set is attributed to ChEMBL document CHEMBL1136679.
